Origin of the recorded values: patent US20260297129A1

Assay overview: Solubility of peptide compounds in buffer formulations (Table 5)
Type: physicochemical
Condition info: aqueous buffer; 50 mM phosphate buffer pH 7.4, 2 h agitation, target 1 mg/ml; read-out: Solubility, Buffer pH 7.4
Numbered stars: 1 amine (or outer) side, 2 acyl side, 3 side chain; on linkers, the order of the positions; unused ones are H or OH. Bridge positions count the residues as written; N and C are the ends. Square brackets hold non-standard residues; d marks the D form. Peptide text beside a SMILES is read from it. * marks the point of attachment. Lys(Me,(CH2)4NMe(CH2)5CO) = CN(CCCCCC(=O)[*:3])CCCCN(C)CCCC[C@H](N[*:1])C(=O)[*:2]; Trp(7-Me) = Cc1cccc2c(C[C@H](N)C(=O)O)c[nH]c12; Trp(1-Me) = Cn1cc(C[C@H](N)C(=O)O)c2ccccc21; 2Nal = N[C@@H](Cc1ccc2ccccc2c1)C(=O)O; 3Pal = N[C@@H](Cc1cccnc1)C(=O)O; AEEEA = NCCOCCOCCOCC(=O)O; Thp = NC1(C(=O)O)CCOCC1; Me2NCH2CH2 = CN(C)CC*; Aib = CC(C)(N)C(=O)O; Sar = CNCC(=O)O
// reported solubility at 2 h per item

*Q* Entry under review: Cc1cccc2c(C[C@@H]3NC(=O)COCCOCCOCCNC(=O)CC[C@@H](C(=O)N[C@@H](CC(N)=O)C(=O)N[C@@H](Cc4cccnc4)C(=O)N(C)CC(N)=O)NC(=O)C(C)(C)NC(=O)[C@H](Cc4ccc5ccccc5c4)NC(=O)[C@H](Cc4ccc(OCCN(C)C)cc4)NC(=O)C4(CCOCC4)NC(=O)[C@H](CCC(N)=O)NC3=O)c[nH]c12 [compound 14] ([AEEEA][Trp(7-Me)]Q[Thp]Y(Me2NCH2CH2)[2Nal][Aib]EN[3Pal][Sar]-NH2; lactam N-8) . Reported solubility at 2 h?
*A* ≥ 1270 µg/mL

*Q* Same again, this time with CN(C)CCOc1ccc(C[C@@H]2NC(=O)C3(CCOCC3)NC(=O)[C@H](CCC(N)=O)NC(=O)[C@H](Cc3cn(C)c4ccccc34)NC(=O)CCCCCN(C)CCCCN(C)CCCC[C@@H](C(=O)N[C@@H](CC(N)=O)C(=O)N[C@@H](Cc3cccnc3)C(=O)N(C)CC(N)=O)NC(=O)C(C)(C)NC(=O)[C@H](Cc3ccc4ccccc4c3)NC2=O)cc1 [compound 33] ([Trp(1-Me)]Q[Thp]Y(Me2NCH2CH2)[2Nal][Aib][Lys(Me,(CH2)4NMe(CH2)5CO)]N[3Pal][Sar]-NH2; lactam N-7)
*A* ≥ 950 µg/mL

###

// reported solubility at 2 h per item
Assay overview: Solubility of peptide compounds in buffer formulations (Table 5)
Type: physicochemical
Condition info: aqueous buffer; 50 mM phosphate buffer pH 7.4, 2 h agitation, target 1 mg/ml; read-out: Solubility, Buffer pH 7.4
Numbered stars: 1 amine (or outer) side, 2 acyl side, 3 side chain; on linkers, the order of the positions; unused ones are H or OH. Bridge positions count the residues as written; N and C are the ends. Square brackets hold non-standard residues; d marks the D form. Peptide text beside a SMILES is read from it. * marks the point of attachment. Lys(Me,(CH2)4NMe(CH2)4CO) = CN(CCCCC(=O)[*:3])CCCCN(C)CCCC[C@H](N[*:1])C(=O)[*:2]; Trp(7-Me) = Cc1cccc2c(C[C@H](N)C(=O)O)c[nH]c12; NH(2-(3-pyridyl)ethyl) = c1cncc(CCN*)c1; Sebacoyl = O=C(CCCCCCCCC(=O)[*:2])[*:1]; 2Nal = N[C@@H](Cc1ccc2ccccc2c1)C(=O)O; Lys(Me) = CNCCCC[C@H](N)C(=O)O; Thp = NC1(C(=O)O)CCOCC1; Me2NCH2CH2 = CN(C)CC*; Aib = CC(C)(N)C(=O)O

These recorded examples may help you get a feel for the data.
{"Compound": "CC(=O)NCCCC[C@@H]1NC(=O)[C@H](Cc2c[nH]c3c(C)cccc23)NC(=O)CCCCN(C)CCCCN(C)CCCC[C@@H](C(=O)NCC(=O)NCCc2cccnc2)NC(=O)C2(CCOCC2)NC(=O)[C@H](Cc2ccc3ccccc3c2)NC(=O)[C@H](Cc2ccc(OCCN(C)C)cc2)NC(=O)C2(CCOCC2)NC1=O [compound 48] ([Trp(7-Me)]K(Ac)[Thp]Y(Me2NCH2CH2)[2Nal][Thp][Lys(Me,(CH2)4NMe(CH2)4CO)]G-{NH(2-(3-pyridyl)ethyl)}; lactam N-7)", "Readout name": "solubility at 2 h", "Test value": "810 µg/mL"}
{"Compound": "Cc1cccc2c(C[C@@H]3NC(=O)CCCCN(C)CCCCN(C)CCCC[C@@H](C(=O)NCC(=O)NCCc4cccnc4)NC(=O)C(C)(C)NC(=O)[C@H](Cc4ccc5ccccc5c4)NC(=O)[C@H](Cc4ccc(OCCN(C)C)cc4)NC(=O)C4(CCOCC4)NC(=O)[C@H](CCC(N)=O)NC3=O)c[nH]c12 [compound 24] ([Trp(7-Me)]Q[Thp]Y(Me2NCH2CH2)[2Nal][Aib][Lys(Me,(CH2)4NMe(CH2)4CO)]G-{NH(2-(3-pyridyl)ethyl)}; lactam N-7)", "Readout name": "solubility at 2 h", "Test value": "≥ 880 µg/mL"}

Read the next record carefully.
*Q* Entry under review: Cc1cccc2c(C[C@@H]3NC(=O)CCCCCCCCC(=O)N(C)CCCC[C@@H](C(=O)NCC(=O)NCCc4cccnc4)NC(=O)C(C)(C)NC(=O)[C@H](Cc4ccc5ccccc5c4)NC(=O)[C@H](Cc4ccc(OCCN(C)C)cc4)NC(=O)C4(CCOCC4)NC(=O)[C@H](CC(C)C)NC3=O)c[nH]c12 [compound 17] ([Trp(7-Me)]L[Thp]Y(Me2NCH2CH2)[2Nal][Aib][Lys(Me)]G-{NH(2-(3-pyridyl)ethyl)}; linker N-7 via Sebacoyl) . Reported solubility at 2 h?
*A* < 10 µg/mL
